Reference source for all entries: patent US20260176319A1

Molecular target: human GRP receptor (human, UniProt P30550 1-384)
Sequence (P30550 whole entry): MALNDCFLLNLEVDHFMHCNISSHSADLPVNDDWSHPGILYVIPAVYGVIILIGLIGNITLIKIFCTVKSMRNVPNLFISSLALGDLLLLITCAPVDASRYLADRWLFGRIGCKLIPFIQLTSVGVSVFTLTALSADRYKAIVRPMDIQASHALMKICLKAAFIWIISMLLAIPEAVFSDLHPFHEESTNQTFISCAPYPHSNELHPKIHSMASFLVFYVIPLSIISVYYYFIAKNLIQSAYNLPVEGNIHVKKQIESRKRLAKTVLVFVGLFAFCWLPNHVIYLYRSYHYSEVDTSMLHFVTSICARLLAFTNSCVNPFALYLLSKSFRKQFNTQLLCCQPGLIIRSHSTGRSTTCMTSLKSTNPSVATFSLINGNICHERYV
Test: cell-based or functional assay
Starred links: 1 amine or outer side, 2 acyl side, 3 side chain; linkers in the order of their positions; H or OH if unused. Non-standard residues stand in square brackets, D forms with d. No end group written: not given here. *: point of attachment. Trp(7-Me) = Cc1cccc2c(C[C@H](N)C(=O)O)c[nH]c12; C20 diacid = O=C(O)CCCCCCCCCCCCCCCCCCC(=O)*; C18 diacid = O=C(O)CCCCCCCCCCCCCCCCC(=O)*; γGlu = O=C(O)[C@H](CCC(=O)[*:2])N[*:1]; 3Pal = N[C@@H](Cc1cccnc1)C(=O)O; Nle = CCCC[C@H](N)C(=O)O; AEEA = NCCOCCOCC(=O)O; βAla = NCCC(=O)O
Quick reference: hIP1 GRPR EC50 of the listed items.
OBSERVABLE: hIP1 GRPR EC50

{"columns": ["BINDER", "RECORDED_MEASUREMENT"],
 "data": [
  ["{C20 diacid}-[γGlu]E[AEEA][AEEA]SGRH[Trp(7-Me)]AV[βAla]HL[Nle]-NH2 (SMILES CCCC[C@H](NC(=O)[C@H](CC(C)C)NC(=O)[C@H](Cc1c[nH]cn1)NC(=O)CCNC(=O)[C@@H](NC(=O)[C@H](C)NC(=O)[C@H](Cc1c[nH]c2c(C)cccc12)NC(=O)[C@H](Cc1c[nH]cn1)NC(=O)[C@H](CCCNC(=N)N)NC(=O)CNC(=O)[C@H](CO)NC(=O)COCCOCCNC(=O)COCCOCCNC(=O)[C@H](CCC(=O)O)NC(=O)CC[C@H](NC(=O)CCCCCCCCCCCCCCCCCCC(=O)O)C(=O)O)C(C)C)C(N)=O) [Peptide 256]", "3.7 nM"],
  ["{C18 diacid}-[γGlu][AEEA][AEEA][AEEA][AEEA]GN[3Pal][Trp(7-Me)]AV[dA]HL[Nle]-NH2 (SMILES CCCC[C@H](NC(=O)[C@H](CC(C)C)NC(=O)[C@H](Cc1c[nH]cn1)NC(=O)[C@@H](C)NC(=O)[C@@H](NC(=O)[C@H](C)NC(=O)[C@H](Cc1c[nH]c2c(C)cccc12)NC(=O)[C@H](Cc1cccnc1)NC(=O)[C@H](CC(N)=O)NC(=O)CNC(=O)COCCOCCNC(=O)COCCOCCNC(=O)COCCOCCNC(=O)COCCOCCNC(=O)CC[C@H](NC(=O)CCCCCCCCCCCCCCCCC(=O)O)C(=O)O)C(C)C)C(N)=O) [Peptide 95]", "110 nM"],
  ["{C18 diacid}-[γGlu][AEEA][AEEA]GNHWAV[dA]HL[Nle] [Peptide 146]", "279 nM"]
]}
